Data provenance is paper PMC7498355.

- assayed-target: T1, Apl (bacteriophage 186, UniProt P21681 1-87)
- T1 sequence: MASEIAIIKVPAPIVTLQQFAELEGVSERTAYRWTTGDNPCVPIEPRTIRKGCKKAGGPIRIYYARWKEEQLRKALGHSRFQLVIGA
- measurement-description: EMSA; apparent Kd (50% DNA unbound); EMSA: 50 mM Tris-HCl pH 7.5, 0.1 mM EDTA, 10% glycerol, 150 mM NaCl, on ice >=30 min, gel at 4 C; bending in TEG 50; footprint: same Tris/EDTA/glycerol with 75
- assay-setup: protein: recombinant; label: 32P end label on one strand; blunt
pKd: −log10 of the molar value.
experimental-endpoint: pKd

binder: Apl 3 (111) (dsDNA) DNA 1: TTGATGGCAAGTGTTGGCAAACAGAGTCAAATCA DNA 2: TGATTTGACTCTGTTTGCCAACACTTGCCATCAA
pKd: ~6.10

The record that follows has no pKd shown yet.
I have this binder here, Apl 7 (dsDNA) DNA 1: TATTTTGGCTAAACCCACGCAATTGATGGCAAGTGTTGGCAAACAGAGTCAAATCAATTGCAAACTTTGGCTAATAGG DNA 2: CCTATTAGCCAAAGTTTGCAATTGATTTGACTCTGTTTGCCAACACTTGCCATCAATTGCGTGGGTTTAGCCAAAATA , and I need its recorded pKd.
~6.56
